# Test system: johnsongrass
# experimental_details: Test C pre-/postemergence test
# Assay type: in vivo, Sorghum halepense
# condition_parameters: 125 g ai/ha, preemergence; scale 0 (no effect) to 100 (complete control)
# Source text: Seeds of plant species selected from blackgrass (Alopecurus myosuroides), downy brome (Bromus tectorum), green foxtail (Setaria viridis), Italian ryegrass (Lolium multiflorum), wheat (Triticum aestivum), wild oat (Avena fatua), catchweed bedstraw (Galium aparine), Russian thistle (Salsola kali), […] […]
assay_readout: Johnsongrass plant response rating

Exercise: For the compound Cn1nc(C(F)(F)F)c(C(Cl)S(=O)(=O)c2cccc[n+]2[O-])c1OC(F)F (stereo not drawn) [Compound 51] , what Johnsongrass plant response rating is on record?
Key: 98

Exercise: Consider next the compound C#CCOc1c(C[S+]([O-])c2cccc[n+]2[O-])c(C(F)(F)F)nn1C (stereo not drawn) [Compound 76] in the same way.
Key: 100

Exercise: Consider next the compound Cn1nc(C(F)(F)F)c(C[S+]([O-])c2cc(Cl)cc[n+]2[O-])c1Cl (racemic) [Compound 39] in the same way.
Key: 85
